# Tested System: Prothrombin (Homo sapiens)
Where a SMILES comes first, the peptide text is derived from it.
Experimental Endpoint: pKi
Quick note: pKi means taking -log10 of the concentration in moles per liter.

Sample NC(N)=NCCCCNC(=O)[C@@H]1CCCN1C(=O)[C@H](N)Cc1ccccc1 (HELM PEPTIDE1{[dF].P.[N=C(N)NCCCCN[*:1]]}$$$$V2.0) — what was its pKi? 6.74
